- target-or-test-system: Ataxin-2 (Homo sapiens)
- assay-procedure: qHTS for Inhibitors of ATXN expression.
- Format: functional
In all, about 400,000 compounds went through this assay and about 2,100 (0.53%) were called active. About 14% were inconclusive and are not listed. How the calls were made is not given here. The entries come from a sample that favours actives as a whole.
# valid calls are t = active, f = inactive; nothing else

>>> assigned_category("CNC(=S)N/N=C/c1c2ccccc2c(Cl)c2ccccc12")
"f"
>>> assigned_category("Cc1cc(C)c2c(CC(=O)O)c(C)[nH]c2c1")
"f"

Lookup: Could you please tell me the result logged for Brc1ccc(C2=CC(c3ccco3)n3ncnc3N2)cc1 (centres undefined) in this assay?
Found: f

Lookup: Record: CCc1nnc(NC(=O)c2ccc(S(=O)(=O)N(CCOC)CCOC)cc2)s1
Found: f

Lookup: Record: Cc1ccc(COc2ccsc2C(=O)NN)cc1
Found: f

Lookup: Record: COc1ccc(C(=O)CC2(O)C(=O)N(Cc3cccc(C(F)(F)F)c3)c3ccccc32)cc1 (centres undefined)
Found: t

Lookup: Record: CCc1nnc(NC(=O)c2sc3nc4c(cc3c2N)CCCCC4)s1
Found: f

Lookup: Record: CCN(CC)C(=O)CSC(Nc1cccc(F)c1)=C(C#N)C#N
Found: f

Lookup: Record: NC(=S)NN=Cc1nccc2c(C(F)(F)C(F)(F)C(F)(F)F)cccc12
Found: t

Lookup: Record: COc1cc2c(cc1OC)CN(C(=O)CSc1ccc(F)cc1)CC2
Found: f

Lookup: Record: COc1ccc(C2CC(c3cccc(C(F)(F)F)c3)=NN2c2ccc(S(N)(=O)=O)cc2)cc1 (centres undefined)
Found: f

Lookup: Record: CCOC(=O)CN1C(=O)S/C(=C\c2ccc3c(c2)OCO3)C1=O
Found: f

Lookup: Record: CCC/C(C#Cc1ccc(N(C)C)cc1)=C1/c2ccccc2C(=O)N1c1ccccc1
Found: f

Lookup: Record: COc1cc2c(cc1OC)CN(Cc1cc(=O)n3c(-c4ccccc4)csc3n1)CC2
Found: f

Lookup: Record: COc1cccc(CN2C(=O)c3cccc(N)c3C2=O)c1
Found: f

Lookup: Record: Cc1c(CCC(=O)NCCCN2CCCC2=O)c(=O)oc2c(C)c(O)ccc12
Found: f

Lookup: Record: CCc1nnc(NC(=O)c2nc(S(=O)(=O)Cc3ccc(C)cc3)ncc2Cl)s1
Found: t

Lookup: Record: Cc1ccc(OCC(=O)N(Cc2ccco2)C2CCS(=O)(=O)C2)cc1C (centres undefined)
Found: f

Lookup: Record: O=C(CCl)c1ccc(Cc2ncc(C(F)(F)F)cc2Cl)s1
Found: t

---

- target-or-test-system: Ataxin-2 (Homo sapiens)
- assay-procedure: qHTS for Inhibitors of ATXN expression.
- Type: functional
Out of some 400,000 compounds screened, about 2,100 (0.53%) were called active. About 14% were inconclusive and are not listed. No rule for the calls is given here. For the sample, actives were picked, then their nearest neighbours and some compounds at random.
# valid calls are yes for active, no for inactive; nothing else

Lookup: Could you please tell me the result logged for COC(=O)C1=CN(C)C=C(C(=O)OC)C1c1ccccc1Cl in this assay?
Found: no

Lookup: Record: Cc1ccc(NC(=S)NCc2ccccc2)cc1C
Found: no

Lookup: Record: Cc1cccn2c(=O)c3cc(C(=O)NC4CCCC4)c(=N)n(Cc4ccc(F)cc4)c3nc12
Found: no

Lookup: Record: O=C(CN1C(=O)NC2(CCCCC2)C1=O)Oc1ccc2c(C(F)(F)F)cc(=O)oc2c1
Found: no

Lookup: Record: Cc1cc(N2CCOCC2)n2ncc(-c3ccccc3Cl)c2n1
Found: no

Lookup: Record: Oc1cc(NC2CCCCC2)nc(O)n1
Found: no

Lookup: Record: O=C(c1ccccc1)N1N=C(c2ccccc2)CC1(O)C(F)(F)F (stereo not given)
Found: no

Lookup: Record: CN(/N=C/c1ccc(O)cc1O)c1nc(-c2ccccc2)cc(-c2ccccc2)n1
Found: yes

Lookup: Record: O=C(Nc1ccc(F)cc1F)c1cc(Cl)sc1Cl
Found: no

Lookup: Record: O=C(OCn1ncc(Cl)c(Cl)c1=O)c1ccccc1Cl
Found: yes

Lookup: Record: COc1ccc(Cl)cc1NC(=O)CNC(c1ccccc1)c1ccccc1
Found: no

Lookup: Record: COc1c(C)cc(S(=O)(=O)N2CCOCC2)c(C)c1C
Found: no

Lookup: Record: CCc1cc(=O)oc2c(C)c(O)c(CN3CCCCC3)cc12
Found: no

Lookup: Record: Clc1ccc(C2=Nn3c(nnc3-c3cc(-c4ccccc4)[nH]n3)SC2)cc1
Found: yes

Lookup: Record: COc1cc(CO)c(Br)cc1OCC(N)=O
Found: no

Lookup: Record: S=C(NN=C(c1ccccc1)c1ccccn1)N(Cc1ccccn1)Cc1ccccn1
Found: yes

Lookup: Record: Cc1c(NC(=O)COC(=O)/C=C/c2cccc(F)c2)c(=O)n(-c2ccccc2)n1C
Found: no

Lookup: Record: O=C(NC(c1ccccc1)c1ccsc1)C1CCN(CCOc2ccc(Cl)cc2Cl)CC1 (stereo not given)
Found: yes
